assay: physchem; conditions: FaSSIF (simulated gastrointestinal fluid), 25 °C, pH 6.5, fassif, thermodynamic from solid
Structures can show the parent of a compound that is named as a salt.
observable: solubility thermodynamic at 2 h (µg/mL)
One number for each entry, in µg/mL.

stdin: For C[C@H]1[C@H](C)CC[C@]2(C(=O)O)CC[C@]3(C)C(=CC[C@@H]4[C@@]5(C)CC[C@H](O)C(C)(C)[C@@H]5CC[C@]43C)[C@H]12 [ursolic acid potassium salt] , what is its reported solubility thermodynamic at 2 h?
stdout: 154

###

assay: physchem; details: FeSSIF (simulated gastrointestinal fluid), 25 °C, pH 5, fessif, thermodynamic from solid
Counter-ions that a name gives are not always drawn.
observable: solubility thermodynamic at 2 h (µg/mL)
Answers are plain numbers, in µg/mL.

stdin: For C[C@H]1[C@H](C)CC[C@]2(C(=O)O)CC[C@]3(C)C(=CC[C@@H]4[C@@]5(C)CC[C@H](O)C(C)(C)[C@@H]5CC[C@]43C)[C@H]12 [ursolic acid potassium salt] , what is its reported solubility thermodynamic at 2 h?
stdout: 318
